Test: chemical genetic growth profiling, strain panel (AID 1159580);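 further: tested at 20 µM; growth read once vehicle control cultures reached saturation at 30 °C; 1 = growth at the plate median or of vehicle wells; lower values mean less growth of the strain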
Conditions: S. cerevisiae deletion strains, growth OD, locus YNL183C, strain NPR1, stronger effect = lower value
Screen size: about 5,500 compounds; about 2,000 (36%) were called active. Not shown: some 18% with an inconclusive outcome. Some of the results follow.
Can you tell me normalized growth for the items I'm about to list?
Answers are plain numbers.

# annotated cases, reported normalized growth shown
COC(=O)c1sccc1NS(=O)(=O)c1cc(Cl)cc(Cl)c1    1.02
NS(=O)(=O)c1cc2c(cc1Cl)NC(CSCc1ccccc1)=NS2(=O)=O    0.909
CC12CCC(=O)C=C1CCC1C2[C@@H](O)CC2(C)C1CC[C@]2(O)C(=O)COP(=O)(O)O (some centres undefined)    0.951
Cc1c(C)c2c(c(C)c1O)CCC(C)(CCCC(C)CCCC(C)CCCC(C)C)O2 (centres undefined)    0.961
CC(=O)Oc1ccc(C(c2ccc(OC(C)=O)cc2)c2ccccn2)cc1    0.928

I have 3 molecules here; please give me normalized growth for each one.
1. Oc1cccc(O)c1
2. CN(C)[C@@H]1C(=O)C(C(N)=O)=C(O)[C@@]2(O)C(=O)C3=C(O)c4c(O)cccc4[C@@](C)(O)[C@H]3[C@H](O)[C@@H]12
3. C=C1c2c(Cl)ccc(O)c2C(O)=C2C(=O)[C@]3(O)C(O)=C(C(N)=O)C(=O)[C@@H](N(C)C)[C@@H]3[C@@H](O)[C@H]12

## Output
1: 0.951; 2: 0.95; 3: 0.947

## Input Reported normalized growth, molecule Cc1onc(-c2c(F)cccc2Cl)c1/C(N)=N\OC(=O)c1ccc(C(C)(C)C)cc1 : ____
## Output 1.11
